system.under.test: C-X-C chemokine receptor type 6 (Homo sapiens) (UniProt O00574)
Sequence (O00574 whole entry, looked up): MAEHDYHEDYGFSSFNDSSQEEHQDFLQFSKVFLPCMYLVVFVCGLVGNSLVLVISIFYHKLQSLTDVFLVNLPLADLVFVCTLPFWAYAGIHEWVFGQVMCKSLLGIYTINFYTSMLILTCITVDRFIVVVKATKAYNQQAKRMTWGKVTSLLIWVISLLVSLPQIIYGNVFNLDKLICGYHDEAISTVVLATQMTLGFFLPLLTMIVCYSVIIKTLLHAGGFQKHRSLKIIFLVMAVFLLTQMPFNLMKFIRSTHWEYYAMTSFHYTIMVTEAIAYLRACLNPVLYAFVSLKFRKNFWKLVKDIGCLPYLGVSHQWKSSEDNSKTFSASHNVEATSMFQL
assay.procedure: potency against CXCR6 with APJ panel – cell-based, beta-arrestin, DiscoveRx, uHTS hits, dose response (AID 624129)
condition.context: CXCR6 beta-arrestin (DiscoveRx) antagonist cell assay, CXCR6, run 1, dose range 2
Each record gets a class by IC50: low band (below 10 µM), middle band (10 µM to below 20 µM), high band (20 µM or more)

molecule=CCC(=O)OCCNc1cc(Sc2nccn2C)c2nonc2c1[N+](=O)[O-] class_assignment="low band"
molecule=CCCC(=O)OCCNc1cc(Sc2nc3ccccc3[nH]2)c2nonc2c1[N+](=O)[O-] class_assignment="low band"
molecule=O=C(NC(=S)N1CCN(c2ccc(C(F)(F)F)cc2[N+](=O)[O-])CC1)c1cccs1 class_assignment="middle band"
molecule=CCOC(=O)c1c(C)oc2c1c(C=NCc1ccccn1)c(O)c1ccccc12 class_assignment="low band"
molecule=COc1cc(/C=C(\C#N)c2nc(-c3cc4ccccc4oc3=O)cs2)ccc1O class_assignment="high band"
molecule=CCn1nccc1C(=O)Nc1nc2ccccc2n1CCN1CCCCC1 class_assignment="middle band"
molecule="C=C1C(=O)c2sccc2C(c2ccc(OC)c(OC)c2)C1COC(C)=O (configuration not stated)" class_assignment="low band"
molecule="C=CCn1c(=O)c2c(nc3n2CC(C)CN3c2cccc(OC)c2)n(C)c1=O (configuration not stated)" class_assignment="middle band"

q: # bin lookup: classify Cc1c(Nc2cc(Cl)c3nonc3c2[N+](=O)[O-])c(=O)n(-c2ccccc2)n1C by its IC50
a: low band

q: # bin lookup: classify COc1cccc(-n2nc(C#N)c(Cl)cc2=O)c1 by its IC50
a: low band

q: # bin lookup: classify COc1ccc(C(=O)/C=C/Sc2nc3ccccc3o2)cc1 by its IC50
a: high band

q: # bin lookup: classify COc1cc(C(=O)NCC(c2ccco2)N2CCc3ccccc3C2)cc(OC)c1OC (configuration not stated) by its IC50
a: middle band

q: # bin lookup: classify CC(=O)Nc1ccc2c(c1)Cc1cc(N3C(=O)C=CC3=O)ccc1-2 by its IC50
a: middle band

###

system.under.test: C-X-C chemokine receptor type 6 (Homo sapiens) (UniProt O00574)
assay.procedure: potency against CXCR6 with APJ panel – cell-based, beta-arrestin, DiscoveRx, uHTS hits, dose response (AID 624129)
condition.context: CXCR6 beta-arrestin (DiscoveRx) antagonist cell assay, CXCR6, run 1, dose range 2, at 80 µM (top of the series)
Classification field: True = inhibition at or over 60%; False = inhibition under 60%.

The following compounds have reported results that may help.
compound="CC(=O)NC(=S)Nc1sc2c(c1C(N)=O)CCC(C)C2 (stereo unspecified)" class_assignment=False
compound=Cc1[nH][nH]c(=O)c1C(c1c(C)[nH][nH]c1=O)c1cn(Cc2ccc(Cl)c(Cl)c2)c2ccccc12 class_assignment=True
compound=COc1ccc(OC)c2sc(N(CCCN(C)C)C(=O)CCS(=O)(=O)c3ccccc3)nc12 class_assignment=True
compound=COc1ccc(Nc2ccc([N+](=O)[O-])c3nonc23)c(OC)c1 class_assignment=False
compound="COc1cc2c(cc1OC)C1(CCCC1)CNC2c1cccc([N+](=O)[O-])c1 (stereo unspecified)" class_assignment=True

q: Could you please find out whether O=C(Nc1nc(-c2ccccn2)cs1)c1cc(Cl)ccc1[N+](=O)[O-] has inhibition that meets 60% or exceeds it?
a: False

q: Could you please find out whether C=C1CC(COc2ccc3c(C)c(Cl)c(=O)oc3c2)(c2ccccc2)OC1=O (stereo unspecified) has inhibition that meets 60% or exceeds it?
a: False

q: Could you please find out whether O=[N+]([O-])c1c(Nc2cccc(O)c2)cc(Cl)c2nonc12 has inhibition that meets 60% or exceeds it?
a: True
